Quick list: Activity per entry.
Target: Zea mays bx9 glucosyl transferase (C-terminally his tagged SEQ ID NO: 1) (Zea mays, UniProt B4G072)
Construct: His tag (C); made in house; host or cells: E. coli BL21 (DE3), pET24a
Sequence (B4G072 whole entry): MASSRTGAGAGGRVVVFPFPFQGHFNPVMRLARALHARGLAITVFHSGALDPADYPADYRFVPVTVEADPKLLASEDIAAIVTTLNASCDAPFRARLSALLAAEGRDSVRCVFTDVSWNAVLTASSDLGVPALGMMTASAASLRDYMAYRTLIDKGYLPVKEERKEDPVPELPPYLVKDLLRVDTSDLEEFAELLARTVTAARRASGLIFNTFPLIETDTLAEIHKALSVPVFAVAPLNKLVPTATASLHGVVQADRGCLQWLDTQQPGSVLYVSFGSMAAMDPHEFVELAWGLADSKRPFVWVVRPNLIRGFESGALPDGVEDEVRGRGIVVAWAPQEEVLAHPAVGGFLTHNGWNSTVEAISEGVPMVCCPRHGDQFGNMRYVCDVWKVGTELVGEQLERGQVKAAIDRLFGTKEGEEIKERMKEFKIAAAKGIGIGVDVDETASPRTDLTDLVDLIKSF
Test: UDP-Glo glucosyl transferase assay, purified enzyme
Assay type: biochemical
Details: herbicide mM: V 0.300, VI 0.250, VII 0.210; IV, VIII, XI, XXI, XX, XVIII, XVI, XV, XIV 0.200; others 1.000

>  <molecule>
CN1CC(O)N(c2cc(C(F)(F)F)ncn2)C1=O (stereo not shown)

>  <quantity_unit>
pmol/sec/pmol enzyme

>  <Activity>
0.000

$$$$
>  <molecule>
CN1CC(O)N(c2cc(C(C)(C)C)c(Cl)nn2)C1=O (stereo not shown)

>  <quantity_unit>
pmol/sec/pmol enzyme

>  <Activity>
0.001

$$$$
>  <molecule>
Cc1cnc(N2C(=O)N(C)C(C)C2O)cc1C(F)(F)F (stereo not shown)

>  <quantity_unit>
pmol/sec/pmol enzyme

>  <Activity>
−0.001

$$$$
>  <molecule>
C[C@H]1C(O)N(c2cc(C(F)(F)F)ccn2)C(=O)N1C (stereo partly shown)

>  <quantity_unit>
pmol/sec/pmol enzyme

>  <Activity>
0.001

$$$$
>  <molecule>
CN1CC(O)N(c2cc(C(C)(C)C)ncn2)C1=O (stereo not shown)

>  <quantity_unit>
pmol/sec/pmol enzyme

>  <Activity>
0.000

$$$$
>  <molecule>
Cc1cnc(N2C(=O)N(C)CC2O)cc1C(F)(F)F (stereo not shown)

>  <quantity_unit>
pmol/sec/pmol enzyme

>  <Activity>
0.001

$$$$
>  <molecule>
C[C@@H]1C(O)N(c2cc(C(C)(C)C)on2)C(=O)[C@@H]1C (stereo partly shown)

>  <quantity_unit>
pmol/sec/pmol enzyme

>  <Activity>
−0.002

$$$$
>  <molecule>
C[C@@H]1C(O)N(c2cc(C(C)(C)C)on2)C(=O)N1C (stereo partly shown)

>  <quantity_unit>
pmol/sec/pmol enzyme

>  <Activity>
0.000

$$$$
>  <molecule>
CC1C(O)N(c2cc(C(F)(F)F)c(Cl)cn2)C(=O)N1C (stereo not shown)

>  <quantity_unit>
pmol/sec/pmol enzyme

>  <Activity>
−0.001

$$$$
>  <molecule>
C[C@H]1C(=O)N(c2noc(C(C)(C)C)c2C#N)C(O)[C@@H]1C (stereo partly shown)

>  <quantity_unit>
pmol/sec/pmol enzyme

>  <Activity>
−0.003

$$$$
>  <molecule>
COC1=C(C)C(O)N(c2cc(C(C)(C)C)ncn2)C1=O (stereo not shown)

>  <quantity_unit>
pmol/sec/pmol enzyme

>  <Activity>
−0.001

$$$$
>  <molecule>
C[C@@H]1C(O)N(c2noc(C(C)(C)C)c2C#N)C(=O)[C@@H]1C (stereo partly shown)

>  <quantity_unit>
pmol/sec/pmol enzyme

>  <Activity>
−0.001

$$$$
>  <molecule>
C[C@@H]1C(=O)N(c2noc(C(C)(C)C)c2C#N)C(O)[C@H]1C (stereo partly shown)

>  <quantity_unit>
pmol/sec/pmol enzyme

>  <Activity>
−0.001

$$$$
>  <molecule>
CN1CC(O)N(c2cc(C(F)(F)F)ccn2)C1=O (stereo not shown)

>  <quantity_unit>
pmol/sec/pmol enzyme

>  <Activity>
0.005

$$$$
>  <molecule>
CN1CC(O)N(c2cc(C(F)(F)F)n(C)n2)C1=O (stereo not shown)

>  <quantity_unit>
pmol/sec/pmol enzyme

>  <Activity>
0.007

$$$$
>  <molecule>
CN1CC(O)N(c2nnc(C(C)(C)C)s2)C1=O (stereo not shown)

>  <quantity_unit>
pmol/sec/pmol enzyme

>  <Activity>
0.017

$$$$
>  <molecule>
CN1CC(O)N(c2cc(C(F)(F)F)c(Cl)cn2)C1=O (stereo not shown)

>  <quantity_unit>
pmol/sec/pmol enzyme

>  <Activity>
0.000

$$$$
>  <molecule>
C[C@H]1C(O)N(c2cc(C(C)(C)F)ncn2)C(=O)N1C (stereo partly shown)

>  <quantity_unit>
pmol/sec/pmol enzyme

>  <Activity>
−0.001

$$$$
>  <molecule>
CC1C(=O)N(c2cc(C(F)(F)F)n(C)n2)C(O)[C@@H]1C (stereo partly shown)

>  <quantity_unit>
pmol/sec/pmol enzyme

>  <Activity>
−0.001

$$$$
>  <molecule>
CON1C(=O)N(c2cc(C(F)(F)F)ccn2)C(O)[C@@H]1C (stereo partly shown)

>  <quantity_unit>
pmol/sec/pmol enzyme

>  <Activity>
0.012

$$$$
>  <molecule>
CN1CC(O)N(c2cc(C(C)(C)C)on2)C1=O (stereo not shown)

>  <quantity_unit>
pmol/sec/pmol enzyme

>  <Activity>
0.000

$$$$
>  <molecule>
CON1C(=O)N(c2cc(C(F)(F)F)c(Cl)cn2)C(O)C1C (stereo not shown)

>  <quantity_unit>
pmol/sec/pmol enzyme

>  <Activity>
0.000

$$$$

====

Molecular target: SEQ ID NO 17, zmBX9 S117V, M279F, A334K mutant (Zea mays, UniProt B4G072, A334K/M279F/S117V)
Construct: polypeptides were the C-terminally his-tagged; His tag (C); made in house
Sequence (B4G072 whole entry S117V/M279F/A334K): as the sequence (B4G072 whole entry) above, with S117V, M279F, A334K counted along it
Assay: UDP-Glo glucosyl transferase assay, purified enzyme
Format: biochemical
Settings: herbicide mM: V 0.300, VI 0.250, VII 0.210; IV, VIII, XI, XXI, XX, XVIII, XVI, XV, XIV 0.200; others 1.000
readout: Activity (pmol/sec/pmol enzyme)

>  <compound>
Cc1cnc(N2C(=O)N(C)C(C)C2O)cc1C(F)(F)F (stereo not shown) [XX]

>  <readout>
Activity

>  <numeric_value>
0.244

$$$$
>  <compound>
C[C@@H]1C(O)N(c2cc(C(C)(C)C)on2)C(=O)[C@@H]1C (stereo partly shown) [VIII]

>  <readout>
Activity

>  <numeric_value>
0.008

$$$$
>  <compound>
C[C@@H]1C(O)N(c2noc(C(C)(C)C)c2C#N)C(=O)[C@@H]1C (stereo partly shown) [XIII]

>  <readout>
Activity

>  <numeric_value>
0.020

$$$$
>  <compound>
CN1CC(O)N(c2cc(C(C)(C)C)ncn2)C1=O (stereo not shown) [IV]

>  <readout>
Activity

>  <numeric_value>
0.019

$$$$
>  <compound>
CN1CC(O)N(c2cc(C(F)(F)F)c(Cl)cn2)C1=O (stereo not shown) [XI]

>  <readout>
Activity

>  <numeric_value>
0.120

$$$$
>  <compound>
CN1CC(O)N(c2cc(C(C)(C)C)c(Cl)nn2)C1=O (stereo not shown) [III]

>  <readout>
Activity

>  <numeric_value>
0.032

$$$$
>  <compound>
C[C@H]1C(O)N(c2cc(C(C)(C)F)ncn2)C(=O)N1C (stereo partly shown) [XIV]

>  <readout>
Activity

>  <numeric_value>
0.037

$$$$
>  <compound>
CON1C(=O)N(c2cc(C(F)(F)F)ccn2)C(O)[C@@H]1C (stereo partly shown) [Compound VI]

>  <readout>
Activity

>  <numeric_value>
1.003

$$$$
>  <compound>
CN1CC(O)N(c2cc(C(F)(F)F)ccn2)C1=O (stereo not shown) [Compound V]

>  <readout>
Activity

>  <numeric_value>
0.565

$$$$
>  <compound>
CC1C(O)N(c2cc(C(F)(F)F)c(Cl)cn2)C(=O)N1C (stereo not shown) [XIX]

>  <readout>
Activity

>  <numeric_value>
0.157

$$$$
>  <compound>
C[C@@H]1C(=O)N(c2noc(C(C)(C)C)c2C#N)C(O)[C@H]1C (stereo partly shown) [XXVI]

>  <readout>
Activity

>  <numeric_value>
0.020

$$$$
>  <compound>
CN1CC(O)N(c2cc(C(F)(F)F)n(C)n2)C1=O (stereo not shown) [XII]

>  <readout>
Activity

>  <numeric_value>
0.018

$$$$
>  <compound>
C[C@H]1C(=O)N(c2noc(C(C)(C)C)c2C#N)C(O)[C@@H]1C (stereo partly shown) [XXIII]

>  <readout>
Activity

>  <numeric_value>
0.014

$$$$
>  <compound>
CON1C(=O)N(c2cc(C(F)(F)F)c(Cl)cn2)C(O)C1C (stereo not shown) [XXI]

>  <readout>
Activity

>  <numeric_value>
0.919

$$$$
>  <compound>
Cc1cnc(N2C(=O)N(C)CC2O)cc1C(F)(F)F (stereo not shown) [XVIII]

>  <readout>
Activity

>  <numeric_value>
0.231

$$$$
>  <compound>
C[C@H]1C(O)N(c2cc(C(F)(F)F)ccn2)C(=O)N1C (stereo partly shown) [XXIV]

>  <readout>
Activity

>  <numeric_value>
0.528

$$$$

====

Target: SEQ ID NO 23, mutant of Zea mays bx9 glucosyl transferase (Zea mays, UniProt B4G072, A334K/F21Y/L194C/M279F/S117V)
Construct: His tag (C); made in house
Sequence (B4G072 whole entry F21Y/S117V/L194C/M279F/A334K): as the sequence (B4G072 whole entry) above, with F21Y, S117V, L194C, M279F, A334K counted along it
Experiment: UDP-Glo glucosyl transferase assay, purified enzyme
Format: biochemical
Conditions: lower block, concentration printed only in upper block: V 0.300, VII 0.210; IV, VIII, XI, XXI, XX, XVIII, XVI, XV, XIV 0.200; others 1.000 mM
Quick list: Activity per entry.

>  <molecule>
CN1CC(O)N(c2cc(C(C)(C)C)c(Cl)nn2)C1=O (stereo not drawn)

>  <Activity [pmol/sec/pmol enzyme]>
0.066

$$$$
>  <molecule>
C[C@H]1C(=O)N(c2noc(C(C)(C)C)c2C#N)C(O)[C@@H]1C (stereo partly drawn)

>  <Activity [pmol/sec/pmol enzyme]>
0.021

$$$$
>  <molecule>
CN1CC(O)N(c2cc(C(F)(F)F)ccn2)C1=O (stereo not drawn)

>  <Activity [pmol/sec/pmol enzyme]>
1.246

$$$$
